system: MS2 coat protein; test: apparent KD of MS2 coat protein; designed switch direction (-1 OFF switch, 1 ON switch): -1; higher = weaker reporter binding; conditions: Eterna round: R95; input ligand: microRNA oligo, concentration not stated
apparent KD of MS2 coat protein vs 80 nM: at or above is YES, below is NO.

Query string: Please check the record GGUUGGCGAGGAUAUACAUGAGGAUCACCCAUGUGAGAGAAUAAAGUGAGAAAGAAAAGUAGAAGGCGCUGACG [Mat - Exclusion 3 - Mod of Salish D49] (puzzle: Exclusion 3) and state if its apparent KD of MS2 coat protein is at or above 80 nM.
Result string: NO

Query string: Please check the record GAUCCACAUGAGGAUCACCCAUGUGAGGAUAUGAUACUAUGUACUUCGGUACAUAGUAUCAGAAGGCACGGGUC [Ex1-3: 55] (puzzle: Exclusion 1) and state if its apparent KD of MS2 coat protein is at or above 80 nM.
Result string: NO

Query string: Please check the record AAAAAACAAGGAUAUACGGAUGAAGAUUGUCUUAAUUUUUGACAUGAGGAUCACCCAUGUAGAAGGUGUUAAAA [JR_Exclusion2_Sub016] (puzzle: Exclusion 2) and state if its apparent KD of MS2 coat protein is at or above 80 nM.
Result string: YES

Query string: Please check the record GUGCAAUGAGGAUAUACGUUGGUGGGCAUCUGUGUGCUCCUACAUGAGGAUCACCCAUGUAGAAGGCAUGUCAC [LRO-Excl2-19] (puzzle: Exclusion 2) and state if its apparent KD of MS2 coat protein is at or above 80 nM.
Result string: NO

* * *

Assign apparent KD of K4 kissing-loop reporter to each entry below.
tested on: K4 kissing-loop RNA reporter; assay: apparent KD of K4 kissing-loop reporter; higher = weaker reporter binding; details: Eterna round: R107; input ligand: none;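 also: bound reporter read as fluorescence of individual clusters on recovered sequencing chips by microscopy, with normalized cluster intensities fitted with a binding model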
Provide only the numeric value, understood in µM.

Query string: Which apparent KD of K4 kissing-loop reporter value belongs to GCCGUACGCAUGGAUACCAGCACUCGUUGAGUGAUGUUCACGAGGUGGUAUUCGACGGGCUGCCCUUGGCAGCCAUGCGUACGGC ?
Result string: 0.102

Query string: Which apparent KD of K4 kissing-loop reporter value belongs to AUCGUUGUCUGAGGAUAUCGUUUUACUGUAGUGAUGUUACAGAAAAUUCACAUUAUAAUUUCUAUUCGAGAAGGCAGACUACGUA [JR_ExcFMNB_Sub015] ?
Result string: 0.12

Query string: Which apparent KD of K4 kissing-loop reporter value belongs to CGUUCCUCUGUCGAUACCAGCUUCAGUUGGCGGCCAGUGAUGUUGGUAUUGCCGAUGCCAAGCCCUUGGCAGCGAUAUGAGACCC [Aredi] ?
Result string: 0.597

Query string: Which apparent KD of K4 kissing-loop reporter value belongs to UAAGAGGACCACUGCAAAAGUCCUCGAAUACGAGGACCGGUACGGCCGCCACUCGAUAAUUUGCAGUGAUGUUGCAAGUAAGAAU [BrourdMod 4 - Jieux - Same State Tryptophan A] ?
Result string: 0.13

Query string: Which apparent KD of K4 kissing-loop reporter value belongs to UCCUAGGCUCGAAAGAGCCUAGGAUUAUCUCAGGAUAUCCGGAAACGGAGAAGGGAGAAACUAGUGAUGUUAGGGAUUCCCUCUU ?
Result string: 0.145

Query string: Which apparent KD of K4 kissing-loop reporter value belongs to UUAGCUCUAUAGAGCAAGAGGUAUACUGAUACCAGAGGCUAUAGCCUCCCUUGGCAGCGGAACGAGUGAUGUUCGAAACCUCAUU [AK5 SS Theophylline A] ?
Result string: 0.94
